Where these numbers come from: PubChem BioAssay (NCI)

experiment: NCI Yeast Anticancer Drug Screen. Data for the sgs1 mgt1 strain (AID 161);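 also: 0% = growth of cultures given vehicle only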; details: S. cerevisiae sgs1 mgt1 strain, at 50.0 µM, stronger effect = higher value
This is part of a sample that, as a whole, favours compounds with a hit. Of some 79,000 tested, about 15% had one in any assay. The source made the active and inactive calls. Rule as the data show it: active = growth inhibition above about 70%; inactive = the rest.
Would you kindly list growth inhibition for each of these compounds?

O=C(O)C(=O)Cc1ccc(O)cc1 : 57% (inactive)
O=[N+]([O-])c1ccc(N/N=C/c2cccnc2)cc1 : 60.1% (inactive)
NC(=O)C1C(=O)c2cccc3c2C1(Br)C(Br)CCC3 (stereo unspecified) : 99.5% (active)
COc1nc(NC2OC(CO)C(O)C(O)C2O)c(Cl)c(=O)[nH]1 (stereo unspecified) : 24.1% (inactive)
Cc1ccc(NNC(=O)C(O)C(O)C(O)C(O)CO)cc1 (stereo unspecified) : 7.85% (inactive)

Dear colleague, I am looking for the recorded growth inhibition of the following compound: Cc1[nH]c2ccccc2c1-c1ccccc1 99.5% (active)
